Assay: Relative dissociation constant evaluated against mouse Ribonucleotide Reductase (RR)
observed property: Relative Kd
Lab note: record just the number, no unit beside it.

Entry under test: CC(=O)N[C@H](C(=O)N[C@H](C(=O)N[C@@H](CC(C)C)C(=O)N[C@@H](CC(=O)O)C(=O)N[C@@H](C)C(=O)N[C@@H](CC(=O)O)C(=O)N[C@@H](Cc1ccccc1)C(=O)O)[C@H](C)O)c1ccccc1 . Its Relative Kd was 6.6

Record summary for CC(C)C[C@H](NC(=O)[C@@H](NC(=O)[C@H](Cc1ccccc1)NC(=O)c1ccnc(-c2cc(C(=O)O)ccn2)c1)[C@H](C)O)C(=O)N[C@@H](CC(=O)O)C(=O)N[C@@H](C)C(=O)N[C@@H](CC(=O)O)C(=O)N[C@@H](Cc1ccccc1)C(=O)O : reported Relative Kd = 0.6

Measured Relative Kd of CC(C)C[C@H](NC(=O)[C@@H](NC(=O)[C@H](Cc1ccccc1)NC=O)[C@H](C)O)C(=O)N[C@@H](CC(=O)O)C(=O)N[C@@H](C)C(=O)N[C@@H](CC(=O)O)C(=O)N[C@@H](Cc1ccccc1)C(=O)O : 2.4

Item: CC(C)C[C@H](NC(=O)[C@@H](NC(=O)[C@H](Cc1ccccc1)NC(=O)Cc1ccccc1)[C@H](C)O)C(=O)N[C@@H](CC(=O)O)C(=O)N[C@@H](C)C(=O)N[C@@H](CC(=O)O)C(=O)N[C@@H](Cc1ccccc1)C(=O)O | Relative Kd: 0.8

Record CC(=O)N[C@@H](Cc1ccccc1)C(=O)N[C@H](C(=O)N[C@@H](CC(C)C)C(=O)N[C@@H](CC(=O)O)C(=O)N[C@@H](C)C(=O)N[C@@H](CC(=O)O)C(=O)N[C@@H](Cc1c[nH]cn1)C(=O)O)[C@H](C)O , field Relative Kd: 29

The measured Relative Kd associated with CC(C)C[C@H](NC(=O)[C@@H](NC(=O)[C@H](Cc1ccccc1)NC(=O)c1ccccc1)[C@H](C)O)C(=O)N[C@@H](CC(=O)O)C(=O)N[C@@H](C)C(=O)N[C@@H](CC(=O)O)C(=O)N[C@@H](Cc1ccccc1)C(=O)O reads 1.9

# Relative Kd of CC(=O)N[C@@H](Cc1ccccc1)C(=O)N[C@H](C(=O)N[C@@H](CC(C)C)C(=O)N[C@@H](CC(=O)O)C(=O)N[C@@H](C)C(=O)N[C@@H](CC(=O)O)C(=O)N[C@@H](Cc1ccccc1Cl)C(=O)O)[C@H](C)O = 12

* * *

Assay: Relative dissociation constant evaluated against mouse Ribonucleotide Reductase (RR)
observed property: Relative Kd
Enter a number only.

Memo: CC(=O)N[C@@H](Cc1ccccc1)C(=O)N[C@H](C(=O)N[C@@H](CC(C)C)C(=O)N[C@@H](CC(=O)O)C(=O)N[C@@H](C)C(=O)N[C@@H](CC(=O)O)C(=O)N[C@@H](Cc1ccccc1O)C(=O)O)[C@H](C)O , reported Relative Kd: 26

* * *

Test: Relative dissociation constant evaluated against mouse Ribonucleotide Reductase (RR)
observed property: Relative Kd
The answer should be written as a number, with no unit following it.

The molecule listed as CC(C)C[C@H](NC(=O)[C@@H](NC(=O)[C@H](Cc1ccccc1)NC(=O)OCC1c2ccccc2-c2ccccc21)[C@H](C)O)C(=O)N[C@@H](CC(=O)O)C(=O)N[C@@H](C)C(=O)N[C@@H](CC(=O)O)C(=O)N[C@@H](Cc1ccccc1)C(=O)O shows Relative Kd equal to 1.4

# Relative Kd of CC(=O)N[C@@H](Cc1ccccc1)C(=O)N[C@H](C(=O)N[C@@H](CC(C)C)C(=O)N[C@@H](CC(=O)O)C(=O)N[C@@H](C)C(=O)N[C@@H](CC(=O)O)C(=O)N[C@@H](Cc1ccc(C)cc1)C(=O)O)[C@H](C)O = 4.7

For reference, reported Relative Kd for CC(=O)N[C@@H](Cc1ccccc1)C(=O)N[C@H](C(=O)N[C@@H](CC(C)C)C(=O)N[C@@H](CC(=O)O)C(=O)N[C@@H](C)C(=O)N[C@@H](CC(=O)O)C(=O)N[C@H](Cc1ccccc1)C(=O)O)[C@H](C)O stands at 8.6

Entry CCCC(=O)N[C@@H](Cc1ccccc1)C(=O)N[C@H](C(=O)N[C@@H](CC(C)C)C(=O)N[C@@H](CC(=O)O)C(=O)N[C@@H](C)C(=O)N[C@@H](CC(=O)O)C(=O)N[C@@H](Cc1ccccc1)C(=O)O)[C@H](C)O ; Relative Kd = 1

Summary for this molecule, COc1ccc(C[C@H](NC(=O)[C@H](CC(=O)O)NC(=O)[C@H](C)NC(=O)[C@H](CC(=O)O)NC(=O)[C@H](CC(C)C)NC(=O)[C@@H](NC(=O)[C@H](Cc2ccccc2)NC(C)=O)[C@H](C)O)C(=O)O)cc1 : Relative Kd is 16

* * *

Test: Relative dissociation constant evaluated against mouse Ribonucleotide Reductase (RR)
Task for the reader: assign each of the following molecules its reported Relative Kd.
Response field accepts a number only; no unit should be typed.

CC(=O)N[C@@H](Cc1ccccc1)C(=O)N[C@H](C(=O)N[C@@H](CC(C)C)C(=O)N[C@@H](CC(=O)O)C(=O)N[C@@H](C)C(=O)N[C@@H](CC(=O)O)C(=O)N[C@@H](Cc1cccc(O)c1)C(=O)O)[C@H](C)O has a reported Relative Kd of 6.3

Relative Kd recorded for this molecule, CC(=O)N[C@@H](Cc1ccccc1)C(=O)N[C@H](C(=O)N[C@@H](CC(C)C)C(=O)N[C@@H](CC(=O)O)C(=O)N[C@@H](C)C(=O)N[C@@H](CC(=O)O)C(=O)N[C@@H](Cc1c[nH]c2ccccc12)C(=O)O)[C@H](C)O , is 10

molecule CC(=O)N[C@@H](Cc1ccccc1)C(=O)N[C@H](C(=O)N[C@@H](CC(C)C)C(=O)N[C@@H](CC(=O)O)C(=O)N[C@@H](C)C(=O)N[C@@H](CC(=O)O)C(=O)N[C@@H](Cc1ccccc1F)C(=O)O)[C@H](C)O , Relative Kd observed: 2

Given item COc1cccc(C[C@H](NC(=O)[C@H](CC(=O)O)NC(=O)[C@H](C)NC(=O)[C@H](CC(=O)O)NC(=O)[C@H](CC(C)C)NC(=O)[C@@H](NC(=O)[C@H](Cc2ccccc2)NC(C)=O)[C@H](C)O)C(=O)O)c1 , the value recorded as its Relative Kd is 8.2

* * *

Experiment: Relative binding affinity evaluated against mouse Ribonucleotide Reductase (RR)
observed property: Relative Ki
Returns: the value as a bare number; no unit string appended.

Briefly, Relative Ki measured for CC(=O)N[C@@H](Cc1ccccc1)C(=O)N[C@H](C(=O)N[C@@H](CC(C)C)C(=O)N[C@@H](CC(=O)O)C(=O)N[C@@H](C)C(=O)N[C@@H](CC(=O)O)C(=O)N[C@@H](Cc1ccccc1)C(=O)O)[C@H](C)O : 1

The reported value for CC(=O)N[C@@H](Cc1ccccc1)C(=O)N[C@H](C(=O)N[C@@H](CC(C)C)C(=O)N[C@@H](CC(=O)O)C(=O)N[C@@H](C)C(=O)N[C@@H](CC(=O)O)C(=O)N[C@@H](Cc1ccc(Cl)cc1)C(=O)O)[C@H](C)O in terms of Relative Ki is 3.2

Reported Relative Ki of CC(=O)N[C@@H](Cc1ccc(O)cc1)C(=O)N[C@H](C(=O)N[C@@H](CC(C)C)C(=O)N[C@@H](CC(=O)O)C(=O)N[C@@H](C)C(=O)N[C@@H](CC(=O)O)C(=O)N[C@@H](Cc1ccccc1)C(=O)O)[C@H](C)O : 15

* * *

Experiment: Relative dissociation constant evaluated against mouse Ribonucleotide Reductase (RR)
observed property: Relative Kd
// print number alone

Measured Relative Kd of CC(=O)N[C@@H](Cc1ccccc1)C(=O)N[C@H](C(=O)N[C@@H](CC(C)C)C(=O)N[C@@H](CC(=O)O)C(=O)N[C@@H](C)C(=O)N[C@@H](CC(=O)O)C(=O)N[C@@H](Cc1c(F)c(F)c(F)c(F)c1F)C(=O)O)[C@H](C)O : 16

Recorded result, CC(=O)N[C@@H](Cc1ccccc1)C(=O)N[C@H](C(=O)N[C@@H](CC(C)C)C(=O)N[C@@H](CC(=O)O)C(=O)N[C@@H](C)C(=O)N[C@@H](CC(=O)O)C(=O)N[C@@H](Cc1ccc(O)cc1)C(=O)O)[C@H](C)O , Relative Kd: 24

* * *

Assay: Relative dissociation constant evaluated against mouse Ribonucleotide Reductase (RR)
observed property: Relative Kd
The response must contain the number and no unit.

Reported Relative Kd ( CC(=O)N[C@@H](Cc1ccccc1)C(=O)N[C@H](C(=O)N[C@@H](CC(C)C)C(=O)N[C@@H](CC(=O)O)C(=O)N[C@@H](C)C(=O)N[C@@H](CC(=O)O)C(=O)N[C@@H](Cc1ccccc1)C(=O)O)[C@H](C)O ) = 1
